- Assay overview: chemical genetic growth profiling, strain panel (AID 1159580);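 also: tested at 20 µM; growth read once vehicle control cultures reached saturation at 30 °C; 1 = growth at the plate median or of vehicle wells; lower values mean less growth of the strain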
- Condition label: S. cerevisiae deletion strains, growth OD, locus YDR195W, strain ref2
Hit rate of the full screen: of about 5,500 compounds, about 2,000 (36%) were called active. Roughly 18% stayed inconclusive and do not appear here. Some of the results follow.
Quantity kind: normalized growth

// known answers, use as guide
{"columns": ["Compound", "normalized growth"],
 "data": [
  ["O=C(/C=C/c1ccc(O)c(O)c1)OCCc1ccccc1", "1.19 [resistant] (active)"],
  ["COc1ccc(C(c2ccc(OC)cc2)C(Cl)(Cl)Cl)cc1", "1.07 (inactive)"],
  ["COc1cc(CNC(=O)CCCC/C=C/C(C)C)ccc1O", "0.959 (inactive)"],
  ["CN1C2CCC1CC(OC(c1ccccc1)c1ccccc1N)C2 (stereo not drawn)", "0.976 (inactive)"],
  ["O=C(Oc1cc(O)cc2c1C[C@@H](OC(=O)c1cc(O)c(O)c(O)c1)[C@@H](c1cc(O)c(O)c(O)c1)O2)c1cc(O)c(O)c(O)c1", "1 (inactive)"],
  ["Cc1ccc(S(=O)(=O)NC(=O)NN2CCCCCC2)cc1", "0.996 (inactive)"]
]}

Working through the 2 compounds below one at a time, give normalized growth for each.
1. COc1ccc(C(CN(C)C)C2(O)CCCCC2)cc1 (stereo not drawn)
2. CC(=O)Oc1cc(OC(C)=O)c2c(c1)O[C@H](c1ccc(OC(C)=O)c(OC(C)=O)c1)[C@@H](OC(C)=O)C2

Reply:
1: 0.975 (inactive); 2: 0.966 (inactive)
